Exercise: for every item that follows, state its recorded viability, T/C.
System: 323965-272-R-J2-PDC complex spheroid growth, % test/control
Test: Anticancer human tumor 323965-272-R-J2-PDC patient-derived pancreatic carcinoma cell line growth inhibition [Asc]
Settings: second compound 0.316 µM; first compound 3 µM; active compounds read low
Numbers only, in %.

{"Molecule": "CCN1C(C(=O)NC23CCC(C(=O)O)(CC2)CC3)C(c2cccc(Cl)c2F)C2(C(=O)Nc3cc(Cl)ccc32)C12CCCCC2 (centres undefined) + CNC(C)C(=O)NC1CN(S(=O)(=O)c2cccc(S(=O)(=O)N3CCC4CCC(C(=O)NC(c5ccccc5)c5ccccc5)N4C(=O)C(NC(=O)C(C)NC)C3)c2)CCC2CCC(C(=O)NC(c3ccccc3)c3ccccc3)N2C1=O", "Result Units": "%", "viability, T/C": 86.2}
{"Molecule": "Cc1nc(N2CCC3(CC2)COC(C)C3N)c(CO)nc1Sc1ccnc(N)c1Cl (centres undefined) + CNC(C)C(=O)NC1CN(S(=O)(=O)c2cccc(S(=O)(=O)N3CCC4CCC(C(=O)NC(c5ccccc5)c5ccccc5)N4C(=O)C(NC(=O)C(C)NC)C3)c2)CCC2CCC(C(=O)NC(c3ccccc3)c3ccccc3)N2C1=O", "Result Units": "%", "viability, T/C": 42.3}
{"Molecule": "CCN1C(C(=O)NC23CCC(C(=O)O)(CC2)CC3)C(c2cccc(Cl)c2F)C2(C(=O)Nc3cc(Cl)ccc32)C12CCCCC2 (centres undefined) + Cc1c(S(C)(=O)=O)c(-c2cc(F)cc(N3CCN(c4ccc(NS(=O)(=O)c5ccc(NC(CCN6CCC(C(=O)OCCCP(=O)(O)O)CC6)CSc6ccccc6)c(S(=O)(=O)C(F)(F)F)c5)cc4)CC3)c2)c(-c2ccc(Cl)cc2)n1C(C)C", "Result Units": "%", "viability, T/C": 65.3}

Lookup: Look up viability, T/C: Cc1nc(N2CCC3(CC2)COC(C)C3N)c(CO)nc1Sc1ccnc(N)c1Cl (centres undefined) + Cc1c(S(C)(=O)=O)c(-c2cc(F)cc(N3CCN(c4ccc(NS(=O)(=O)c5ccc(NC(CCN6CCC(C(=O)OCCCP(=O)(O)O)CC6)CSc6ccccc6)c(S(=O)(=O)C(F)(F)F)c5)cc4)CC3)c2)c(-c2ccc(Cl)cc2)n1C(C)C
Found: 35.9

* * *

Exercise: for every item that follows, state its recorded viability, T/C.
Tested on: 323965-272-R-J2-PDC complex spheroid growth, % test/control
Assay: Anticancer human tumor 323965-272-R-J2-PDC cell line growth inhibition [Asc];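 also: compound exposure lasted 7 days starting three days after spheroid seeding; 100% = DMSO vehicle control wells with viability set relative to vehicle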
Details: second compound 1 µM; first compound 0.00949 µM; active compounds read low
From the text: Multicellular complex tumor spheroid response to apoptosis pathway targeting inhibitors Alrizomadlin, Pelcitoclax, and Dasminapant in combination with a variety of drugs and investigational agents in selected tumor cell lines […] Compounds. […] If the clinical Cmax for an agent had not been determined, the highest concentration tested was 10 microM. […]
Answers are plain numbers, in %.

{"Compound": "NC(=O)C(=Cn1cnc(-c2cc(C(F)(F)F)cc(C(F)(F)F)c2)n1)c1cncnc1 + Cc1c(S(C)(=O)=O)c(-c2cc(F)cc(N3CCN(c4ccc(NS(=O)(=O)c5ccc(NC(CCN6CCC(C(=O)OCCCP(=O)(O)O)CC6)CSc6ccccc6)c(S(=O)(=O)C(F)(F)F)c5)cc4)CC3)c2)c(-c2ccc(Cl)cc2)n1C(C)C", "Result Units": "%", "viability, T/C": 80.2}
{"Compound": "CCN1C(C(=O)NC23CCC(C(=O)O)(CC2)CC3)C(c2cccc(Cl)c2F)C2(C(=O)Nc3cc(Cl)ccc32)C12CCCCC2 (stereo unspecified) + Cc1c(S(C)(=O)=O)c(-c2cc(F)cc(N3CCN(c4ccc(NS(=O)(=O)c5ccc(NC(CCN6CCC(C(=O)OCCCP(=O)(O)O)CC6)CSc6ccccc6)c(S(=O)(=O)C(F)(F)F)c5)cc4)CC3)c2)c(-c2ccc(Cl)cc2)n1C(C)C", "Result Units": "%", "viability, T/C": 95.3}
{"Compound": "Cc1nc(N2CCC3(CC2)COC(C)C3N)c(CO)nc1Sc1ccnc(N)c1Cl (stereo unspecified) + Cc1c(S(C)(=O)=O)c(-c2cc(F)cc(N3CCN(c4ccc(NS(=O)(=O)c5ccc(NC(CCN6CCC(C(=O)OCCCP(=O)(O)O)CC6)CSc6ccccc6)c(S(=O)(=O)C(F)(F)F)c5)cc4)CC3)c2)c(-c2ccc(Cl)cc2)n1C(C)C", "Result Units": "%", "viability, T/C": 81}
{"Compound": "NC(=O)C(=Cn1cnc(-c2cc(C(F)(F)F)cc(C(F)(F)F)c2)n1)c1cncnc1 + CNC(C)C(=O)NC1CN(S(=O)(=O)c2cccc(S(=O)(=O)N3CCC4CCC(C(=O)NC(c5ccccc5)c5ccccc5)N4C(=O)C(NC(=O)C(C)NC)C3)c2)CCC2CCC(C(=O)NC(c3ccccc3)c3ccccc3)N2C1=O", "Result Units": "%", "viability, T/C": 77.3}
{"Compound": "CCN1C(C(=O)NC23CCC(C(=O)O)(CC2)CC3)C(c2cccc(Cl)c2F)C2(C(=O)Nc3cc(Cl)ccc32)C12CCCCC2 (stereo unspecified) + CNC(C)C(=O)NC1CN(S(=O)(=O)c2cccc(S(=O)(=O)N3CCC4CCC(C(=O)NC(c5ccccc5)c5ccccc5)N4C(=O)C(NC(=O)C(C)NC)C3)c2)CCC2CCC(C(=O)NC(c3ccccc3)c3ccccc3)N2C1=O", "Result Units": "%", "viability, T/C": 90.8}

Here is the next item to consider.
Lookup: Look up viability, T/C: Cc1nc(N2CCC3(CC2)COC(C)C3N)c(CO)nc1Sc1ccnc(N)c1Cl (stereo unspecified) + CNC(C)C(=O)NC1CN(S(=O)(=O)c2cccc(S(=O)(=O)N3CCC4CCC(C(=O)NC(c5ccccc5)c5ccccc5)N4C(=O)C(NC(=O)C(C)NC)C3)c2)CCC2CCC(C(=O)NC(c3ccccc3)c3ccccc3)N2C1=O
Found: 84.8

* * *

Exercise: for every item that follows, state its recorded viability, T/C.
Tested on: 323965-272-R-J2-PDC complex spheroid growth, % test/control
Experiment: Anticancer human tumor 323965-272-R-J2-PDC cell line growth inhibition [Asc];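 also: compound exposure lasted 7 days starting three days after spheroid seeding; 100% = DMSO vehicle control wells with viability set relative to vehicle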
Settings: second compound 0.01 µM; first compound 0.316 µM; active compounds read low
Numbers only, in %.

Take a look at these entries with their results.
{"Compound": "C=C(F)C(=O)N1CCN(c2nc(OCC3CCCN3C)nc3c2CCN(c2cccc4cccc(Cl)c24)C3)CC1CC#N (centres undefined) + CNC(C)C(=O)NC1CN(S(=O)(=O)c2cccc(S(=O)(=O)N3CCC4CCC(C(=O)NC(c5ccccc5)c5ccccc5)N4C(=O)C(NC(=O)C(C)NC)C3)c2)CCC2CCC(C(=O)NC(c3ccccc3)c3ccccc3)N2C1=O", "Measurement Target": "323965-272-R-J2-PDC complex spheroid growth, % test/control", "Result Units": "%", "viability, T/C": 48.8}
{"Compound": "C#Cc1c(F)ccc2cc(O)cc(-c3ncc4c(N5CC6CCC(C5)N6)nc(OCC56CCCN5CC(F)C6)nc4c3F)c12 (centres undefined) + CNC(C)C(=O)NC1CN(S(=O)(=O)c2cccc(S(=O)(=O)N3CCC4CCC(C(=O)NC(c5ccccc5)c5ccccc5)N4C(=O)C(NC(=O)C(C)NC)C3)c2)CCC2CCC(C(=O)NC(c3ccccc3)c3ccccc3)N2C1=O", "Measurement Target": "323965-272-R-J2-PDC complex spheroid growth, % test/control", "Result Units": "%", "viability, T/C": 96.4}
{"Compound": "O=C(c1cc(Cc2n[nH]c(=O)c3ccccc23)ccc1F)N1CCN(C(=O)C2CC2)CC1 + CNC(C)C(=O)NC1CN(S(=O)(=O)c2cccc(S(=O)(=O)N3CCC4CCC(C(=O)NC(c5ccccc5)c5ccccc5)N4C(=O)C(NC(=O)C(C)NC)C3)c2)CCC2CCC(C(=O)NC(c3ccccc3)c3ccccc3)N2C1=O", "Measurement Target": "323965-272-R-J2-PDC complex spheroid growth, % test/control", "Result Units": "%", "viability, T/C": 97.5}

Lookup: Look up viability, T/C: CCN1CCN(Cc2ccc(Nc3ncc(F)c(-c4cc(F)c5nc(C)n(C(C)C)c5c4)n3)nc2)CC1 + CNC(C)C(=O)NC1CN(S(=O)(=O)c2cccc(S(=O)(=O)N3CCC4CCC(C(=O)NC(c5ccccc5)c5ccccc5)N4C(=O)C(NC(=O)C(C)NC)C3)c2)CCC2CCC(C(=O)NC(c3ccccc3)c3ccccc3)N2C1=O
Found: 85.6

* * *

Test system: 323965-272-R-J2-PDC complex spheroid growth, % test/control
Experiment: Anticancer human tumor 323965-272-R-J2-PDC cell line growth inhibition [Asc];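 also: compound exposure lasted 7 days starting three days after spheroid seeding; 100% = DMSO vehicle control wells with viability set relative to vehicle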
Settings: second compound 0.0316 µM; first compound 0.316 µM; active compounds read low
Readout Name: viability, T/C (%)
Answers are plain numbers, in %.

Take a look at these entries with their results.
{"Compound": "C=C(F)C(=O)N1CCN(c2nc(OCC3CCCN3C)nc3c2CCN(c2cccc4cccc(Cl)c24)C3)CC1CC#N (stereo unspecified) + CNC(C)C(=O)NC1CN(S(=O)(=O)c2cccc(S(=O)(=O)N3CCC4CCC(C(=O)NC(c5ccccc5)c5ccccc5)N4C(=O)C(NC(=O)C(C)NC)C3)c2)CCC2CCC(C(=O)NC(c3ccccc3)c3ccccc3)N2C1=O", "Measurement Target": "323965-272-R-J2-PDC complex spheroid growth, % test/control", "Result Units": "%", "Test Value": 47.1}
{"Compound": "O=C(c1cc(Cc2n[nH]c(=O)c3ccccc23)ccc1F)N1CCN(C(=O)C2CC2)CC1 + CNC(C)C(=O)NC1CN(S(=O)(=O)c2cccc(S(=O)(=O)N3CCC4CCC(C(=O)NC(c5ccccc5)c5ccccc5)N4C(=O)C(NC(=O)C(C)NC)C3)c2)CCC2CCC(C(=O)NC(c3ccccc3)c3ccccc3)N2C1=O", "Measurement Target": "323965-272-R-J2-PDC complex spheroid growth, % test/control", "Result Units": "%", "Test Value": 100}
{"Compound": "C#Cc1c(F)ccc2cc(O)cc(-c3ncc4c(N5CC6CCC(C5)N6)nc(OCC56CCCN5CC(F)C6)nc4c3F)c12 (stereo unspecified) + Cc1c(S(C)(=O)=O)c(-c2cc(F)cc(N3CCN(c4ccc(NS(=O)(=O)c5ccc(NC(CCN6CCC(C(=O)OCCCP(=O)(O)O)CC6)CSc6ccccc6)c(S(=O)(=O)C(F)(F)F)c5)cc4)CC3)c2)c(-c2ccc(Cl)cc2)n1C(C)C", "Measurement Target": "323965-272-R-J2-PDC complex spheroid growth, % test/control", "Result Units": "%", "Test Value": 109}

Batch: viability, T/C for all items listed.
1. CCN1CCN(Cc2ccc(Nc3ncc(F)c(-c4cc(F)c5nc(C)n(C(C)C)c5c4)n3)nc2)CC1 + CNC(C)C(=O)NC1CN(S(=O)(=O)c2cccc(S(=O)(=O)N3CCC4CCC(C(=O)NC(c5ccccc5)c5ccccc5)N4C(=O)C(NC(=O)C(C)NC)C3)c2)CCC2CCC(C(=O)NC(c3ccccc3)c3ccccc3)N2C1=O
2. COc1c(OCCCN2CCOCC2)ccc2c3n(c(=NC(=O)c4cnc(N)nc4)nc12)CCN3 + CNC(C)C(=O)NC1CN(S(=O)(=O)c2cccc(S(=O)(=O)N3CCC4CCC(C(=O)NC(c5ccccc5)c5ccccc5)N4C(=O)C(NC(=O)C(C)NC)C3)c2)CCC2CCC(C(=O)NC(c3ccccc3)c3ccccc3)N2C1=O
3. O=C(c1ccc(F)c(F)c1Nc1ccc(I)cc1F)N1CC(O)([C@@H]2CCCCN2)C1 + CNC(C)C(=O)NC1CN(S(=O)(=O)c2cccc(S(=O)(=O)N3CCC4CCC(C(=O)NC(c5ccccc5)c5ccccc5)N4C(=O)C(NC(=O)C(C)NC)C3)c2)CCC2CCC(C(=O)NC(c3ccccc3)c3ccccc3)N2C1=O

Found:
1. 75
2. 37.6
3. 25.7
